The reported numbers originate from ChEMBL document CHEMBL5725365.

# study_target: Tyrosine-protein kinase BTK (Homo sapiens)
# Sequence (Q06187 whole entry): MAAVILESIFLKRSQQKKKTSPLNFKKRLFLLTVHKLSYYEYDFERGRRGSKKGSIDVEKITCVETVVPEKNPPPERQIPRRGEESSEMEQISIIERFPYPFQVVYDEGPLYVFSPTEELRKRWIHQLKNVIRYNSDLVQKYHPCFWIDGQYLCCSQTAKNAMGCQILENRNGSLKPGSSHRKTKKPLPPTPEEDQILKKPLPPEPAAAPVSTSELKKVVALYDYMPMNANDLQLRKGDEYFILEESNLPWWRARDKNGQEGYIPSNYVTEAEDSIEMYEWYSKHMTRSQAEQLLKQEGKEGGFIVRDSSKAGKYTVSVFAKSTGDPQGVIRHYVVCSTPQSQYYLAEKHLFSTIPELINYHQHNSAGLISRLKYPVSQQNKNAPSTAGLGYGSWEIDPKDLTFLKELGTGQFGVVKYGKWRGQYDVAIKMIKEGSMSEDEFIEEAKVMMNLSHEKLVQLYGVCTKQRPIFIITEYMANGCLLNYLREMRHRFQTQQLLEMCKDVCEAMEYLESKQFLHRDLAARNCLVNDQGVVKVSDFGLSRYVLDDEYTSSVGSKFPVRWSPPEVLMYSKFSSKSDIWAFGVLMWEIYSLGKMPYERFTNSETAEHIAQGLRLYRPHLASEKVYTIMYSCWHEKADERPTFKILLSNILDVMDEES
# test_details: Enzymatic Activity Assay: A Caliper-based kinase assay (Caliper Life Sciences, Hopkinton, Mass.) was used to measure inhibition of BTK kinase activity of a compound of the present disclosure. Serial dilutions of test compounds were incubated with human recombinant BTK (0.5 nM), ATP (16 μM) and a phosphoacceptor peptide substrate FAM-[…]-NH2(1 μM) at room temperature for 3 h. The reaction was then terminated with EDTA, final concentration 20 mM and the phosphorylated reaction product was quantified on a Caliper Desktop Profiler (Caliper LabChip 3000).
reported_endpoint: pIC50
Scale: pIC50 equals -log10([C]), with [C] in mol/L.

Recorded pIC50 for `CC(C)(C=C(C#N)C(=O)N1CCC[C@@H](n2c(=O)n(-c3ccc(Oc4ccccc4)cc3)c3c(N)nccc32)C1)C(=O)N1CCN(C2COC2)CC1` , please? 7.62
